Entry source: patent US20050282755A1

test system: Pseudomonas aeruginosa ATCC 27853; assay: MIC, NCCLS M7-A6 broth microdilution (Table 9, no superscript); format: cell-based; conditions: ATCC 27853
Non-standard residues stand in square brackets, D forms with d. Residues, ends and D or L forms follow the SMILES beside them. *: point of attachment. Lauroyl = CCCCCCCCCCCC(=O)*
experimental readout: MIC P. aeruginosa (µg/mL)
Value expressed in µg/mL; do not type the unit.

>  <molecule>
CCCCCCCCCCCC(=O)N[C@H](CCCNC(=N)N)C(=O)N[C@H](CO)C(=O)N[C@H](CCCNC(=N)N)C(=O)N[C@H](Cc1c[nH]c2ccccc12)C(=O)N[C@H](CCCNC(=N)N)C(=O)N[C@H](CC(=O)O)C(=O)N[C@@H](C(=O)N[C@H](C)C(N)=O)C(C)C [Peptide 119, Lauryl-rsrwrdva-NH2] (Lauroyl-[dR][dS][dR][dW][dR][dD][dV][dA]-NH2)

>  <MIC P. aeruginosa [µg/mL]>
32

$$$$
>  <molecule>
CCCCCCCCCCCC(=O)N[C@H](CCCNC(=N)N)C(=O)N[C@H](CO)C(=O)N[C@H](CCCNC(=N)N)C(=O)N[C@H](Cc1c[nH]c2ccccc12)C(=O)N[C@H](CCCNC(=N)N)C(=O)N[C@H](CC(=O)O)C(=O)N[C@@H](C(=O)N[C@H](C)C(=O)N[C@H](CCCNC(=N)N)C(=O)N[C@H](CC(N)=O)C(N)=O)C(C)C [Peptide 117, Lauryl-rsrwrdvarn-NH2] (Lauroyl-[dR][dS][dR][dW][dR][dD][dV][dA][dR][dN]-NH2)

>  <MIC P. aeruginosa [µg/mL]>
64

$$$$

Then this molecule:
Value of MIC P. aeruginosa reported for the molecule CCCCCCCCCCCC(=O)N[C@H](CCCNC(=N)N)C(=O)N[C@H](CO)C(=O)N[C@H](CCCNC(=N)N)C(=O)N[C@H](Cc1c[nH]c2ccccc12)C(=O)N[C@H](CCCNC(=N)N)C(=O)N[C@H](CCC(=O)O)C(=O)N[C@@H](C(=O)N[C@H](C)C(=O)N[C@H](CCCNC(=N)N)C(=O)N[C@H](CC(N)=O)C(=O)N[C@H](Cc1ccccc1)C(=O)N[C@H](CC(C)C)C(=O)N[C@H](CCCNC(=N)N)C(N)=O)C(C)C [Peptide 221, Lauryl-rsrwrevarnflr-NH2] (Lauroyl-[dR][dS][dR][dW][dR][dE][dV][dA][dR][dN][dF][dL][dR]-NH2) is 8

---

tested on: Pseudomonas aeruginosa ATCC 27853; test: MIC, NCCLS M7-A6 broth microdilution (Table 9, no superscript); assay type: cell-based; conditions: ATCC 27853
Residues, ends and D or L forms follow the SMILES beside them. *: point of attachment. Lauroyl = CCCCCCCCCCCC(=O)*
experimental readout: MIC P. aeruginosa (µg/mL)
Answer with a number only, understood to be in µg/mL.

Simply: CCCCCCCCCCCC(=O)N[C@@H](CCCNC(=N)N)C(=O)N[C@@H](CO)C(=O)N[C@@H](CCCNC(=N)N)C(=O)N[C@@H](Cc1c[nH]c2ccccc12)C(=O)N[C@@H](CCCNC(=N)N)C(=O)N[C@@H](CC(=O)O)C(=O)N[C@H](C(=O)N[C@@H](C)C(=O)N[C@@H](CCCNC(=N)N)C(=O)N[C@@H](CC(N)=O)C(=O)N[C@@H](Cc1ccccc1)C(=O)N[C@@H](CC(C)C)C(=O)N[C@@H](CCCNC(=N)N)C(N)=O)C(C)C [Peptide 135, Lauryl-RSRWRDVARNFLR-NH2] (Lauroyl-RSRWRDVARNFLR-NH2) , Pseudomonas aeruginosa ATCC 27853, MIC P. aeruginosa = 4

---

Property: MIC P. aeruginosa; scope: individual molecules
test system: Pseudomonas aeruginosa ATCC 27853; experiment: MIC, NCCLS M7-A6 broth microdilution (Table 9, no superscript); format: cell-based; details: ATCC 27853
Non-standard residues stand in square brackets, D forms with d. Residues, ends and D or L forms follow the SMILES beside them. *: point of attachment. d(hArg) = N=C(N)NCCCC[C@@H](N)C(=O)O; Lauroyl = CCCCCCCCCCCC(=O)*; Octanoyl = CCCCCCCC(=O)*
Please state the figure in µg/mL; there is no need to write the unit.

>  <molecule>
CCCCCCCC(=O)N[C@H](CCCNC(=N)N)C(=O)N[C@H](CO)C(=O)N[C@H](CCCNC(=N)N)C(=O)N[C@H](Cc1c[nH]c2ccccc12)C(=O)N[C@H](CCCNC(=N)N)C(=O)N[C@H](CC(=O)O)C(=O)N[C@@H](C(=O)N[C@H](C)C(=O)N[C@H](CCCNC(=N)N)C(=O)N[C@H](CC(N)=O)C(=O)N[C@H](Cc1ccccc1)C(=O)N[C@H](CCSC)C(=O)N[C@H](CCCNC(=N)N)C(N)=O)C(C)C [Peptide 207, Octyl-rsrwrdvarnfmr-NH2] (Octanoyl-[dR][dS][dR][dW][dR][dD][dV][dA][dR][dN][dF][dM][dR]-NH2)

>  <MIC P. aeruginosa [µg/mL]>
32

$$$$
>  <molecule>
CCCCCCCCCCCC(=O)N[C@H](CCCCNC(=N)N)C(=O)N[C@H](CO)C(=O)N[C@H](CCCCNC(=N)N)C(=O)N[C@H](Cc1c[nH]c2ccccc12)C(=O)N[C@H](CCCCNC(=N)N)C(=O)N[C@H](CC(=O)O)C(=O)N[C@@H](C(=O)N[C@H](C)C(=O)N[C@H](CCCCNC(=N)N)C(=O)N[C@H](CC(N)=O)C(=O)N[C@H](Cc1ccccc1)C(=O)N[C@H](CCSC)C(=O)N[C@H](CCCCNC(=N)N)C(N)=O)C(C)C [Peptide 159] (Lauroyl-[d(hArg)][dS][d(hArg)][dW][d(hArg)][dD][dV][dA][d(hArg)][dN][dF][dM][d(hArg)]-NH2)

>  <MIC P. aeruginosa [µg/mL]>
32

$$$$
>  <molecule>
CCCCCCCCCCCC(=O)N[C@@H](CCCNC(=N)N)C(=O)N[C@@H](CO)C(=O)N[C@@H](CCCNC(=N)N)C(=O)N[C@@H](Cc1c[nH]c2ccccc12)C(=O)N[C@@H](CCCNC(=N)N)C(=O)N[C@@H](CC(=O)O)C(=O)N[C@H](C(=O)N[C@@H](C)C(=O)N[C@@H](CCCNC(=N)N)C(=O)N[C@@H](CC(N)=O)C(=O)N[C@@H](Cc1ccccc1)C(=O)N[C@@H](CCSC)C(N)=O)C(C)C [Peptide 98, Lauryl-RSRWRDVARNFM-NH2] (Lauroyl-RSRWRDVARNFM-NH2)

>  <MIC P. aeruginosa [µg/mL]>
64

$$$$

Record CCCCCCCCCCCC(=O)N[C@H](CCCNC(=N)N)C(=O)N[C@H](CO)C(=O)N[C@H](CCCNC(=N)N)C(=O)N[C@H](Cc1c[nH]c2ccccc12)C(=O)N[C@H](CCCNC(=N)N)C(=O)N[C@H](CC(=O)O)C(=O)N[C@H](CC(C)C)C(=O)N[C@H](CC(C)C)C(=O)N[C@H](CCCNC(=N)N)C(=O)N[C@H](CC(N)=O)C(=O)N[C@H](CC(C)C)C(=O)N[C@H](CCSC)C(=O)N[C@H](CCCNC(=N)N)C(N)=O [Peptide 133, Lauryl-rsrwrdllrnlmr-NH2] (Lauroyl-[dR][dS][dR][dW][dR][dD][dL][dL][dR][dN][dL][dM][dR]-NH2) , field MIC P. aeruginosa: 32

The molecule CCCCCCCCCCCC(=O)N[C@H](CCCNC(=N)N)C(=O)N[C@H](Cc1c[nH]c2ccccc12)C(=O)N[C@H](CCCNC(=N)N)C(=O)N[C@H](CC(=O)O)C(=O)N[C@@H](C(=O)N[C@H](C)C(=O)N[C@H](CCCNC(=N)N)C(N)=O)C(C)C [Peptide 122, Lauryl-rwrdvar-NH2] (Lauroyl-[dR][dW][dR][dD][dV][dA][dR]-NH2) showed MIC P. aeruginosa equal to 16

MIC P. aeruginosa in this record for CCCCCCCCCCCC(=O)N[C@H](CCCNC(=N)N)C(=O)N[C@H](CO)C(=O)N[C@H](CCCNC(=N)N)C(=O)N[C@H](Cc1c[nH]c2ccccc12)C(=O)N[C@H](CCCNC(=N)N)C(=O)N[C@H](CC(=O)O)C(=O)N[C@@H](C(=O)N[C@H](C)C(=O)N[C@H](CCCNC(=N)N)C(=O)N[C@H](CC(N)=O)C(=O)N[C@H](Cc1ccccc1)C(=O)N[C@H](CCSC)C(=O)N[C@H](C)C(N)=O)C(C)C [Peptide 231, Lauryl-rsrwrdvarnfma-NH2] (Lauroyl-[dR][dS][dR][dW][dR][dD][dV][dA][dR][dN][dF][dM][dA]-NH2) : 32

---

test system: Pseudomonas aeruginosa ATCC 27853; test: MIC, NCCLS M7-A6 broth microdilution (Table 9, no superscript); type: cell-based; details: ATCC 27853
Non-standard residues stand in square brackets, D forms with d. Residues, ends and D or L forms follow the SMILES beside them. *: point of attachment. Lauroyl = CCCCCCCCCCCC(=O)*; Octanoyl = CCCCCCCC(=O)*
Overview of recorded MIC P. aeruginosa for various compounds
# unit: µg/mL | format: bare number

Before answering, review these 5 worked examples.
>  <compound>
CCCCCCCCCCCC(=O)N[C@@H](CCCNC(=N)N)C(=O)N[C@H](CO)C(=O)N[C@@H](CCCNC(=N)N)C(=O)N[C@H](Cc1c[nH]c2ccccc12)C(=O)N[C@@H](CCCNC(=N)N)C(=O)N[C@H](CC(=O)O)C(=O)N[C@@H](C(=O)N[C@H](C)C(=O)N[C@@H](CCCNC(=N)N)C(=O)N[C@H](CC(N)=O)C(=O)N[C@H](Cc1ccccc1)C(=O)N[C@H](CCSC)C(=O)N[C@@H](CCCNC(=N)N)C(N)=O)C(C)C [Peptide 158, Lauryl-RsRwRdvaRnfmR-NH2] (Lauroyl-R[dS]R[dW]R[dD][dV][dA]R[dN][dF][dM]R-NH2)

>  <MIC P. aeruginosa, µg/mL>
4

$$$$
>  <compound>
CCCCCCCCCCCC(=O)N[C@H](CCCNC(=N)N)C(=O)N[C@H](CO)C(=O)N[C@H](CCCNC(=N)N)C(=O)N[C@H](Cc1c[nH]c2ccccc12)C(=O)N[C@H](CCCNC(=N)N)C(=O)N[C@H](C)C(=O)N[C@@H](C(=O)N[C@H](C)C(=O)N[C@H](CCCNC(=N)N)C(=O)N[C@H](CC(N)=O)C(=O)N[C@H](Cc1ccccc1)C(=O)N[C@H](CC(C)C)C(=O)N[C@H](CCCNC(=N)N)C(N)=O)C(C)C [Peptide 225, Lauryl-rsrwravarnflr-NH2] (Lauroyl-[dR][dS][dR][dW][dR][dA][dV][dA][dR][dN][dF][dL][dR]-NH2)

>  <MIC P. aeruginosa, µg/mL>
16

$$$$
>  <compound>
CCCCCCCCCCCC(=O)N[C@@H](CCCNC(=N)N)C(=O)N[C@@H](CO)C(=O)N[C@@H](CCCNC(=N)N)C(=O)N[C@@H](Cc1c[nH]c2ccccc12)C(=O)N[C@@H](CCCNC(=N)N)C(=O)N[C@@H](CC(=O)O)C(=O)N[C@H](C(=O)N[C@@H](C)C(N)=O)C(C)C [Peptide 102, Lauryl-RSRWRDVA-NH2] (Lauroyl-RSRWRDVA-NH2)

>  <MIC P. aeruginosa, µg/mL>
64

$$$$
>  <compound>
CCCCCCCCCCCC(=O)N[C@H](CCCNC(=N)N)C(=O)N[C@H](C)C(=O)N[C@H](CCCNC(=N)N)C(=O)N[C@H](Cc1c[nH]c2ccccc12)C(=O)N[C@H](CCCNC(=N)N)C(=O)N[C@H](CC(=O)O)C(=O)N[C@@H](C(=O)N[C@H](C)C(=O)N[C@H](CCCNC(=N)N)C(=O)N[C@H](CC(N)=O)C(=O)N[C@H](Cc1ccccc1)C(=O)N[C@H](CC(C)C)C(=O)N[C@H](CCCNC(=N)N)C(N)=O)C(C)C [Peptide 224, Lauryl-rarwrdvarnflr-NH2] (Lauroyl-[dR][dA][dR][dW][dR][dD][dV][dA][dR][dN][dF][dL][dR]-NH2)

>  <MIC P. aeruginosa, µg/mL>
16

$$$$
>  <compound>
CCCCCCCC(=O)NCCCC[C@H](NC(=O)[C@H](CCCNC(=N)N)NC(=O)[C@H](CC(C)C)NC(=O)[C@H](Cc1ccccc1)NC(=O)[C@H](CC(N)=O)NC(=O)[C@H](CCCNC(=N)N)NC(=O)[C@H](C)NC(=O)[C@@H](NC(=O)[C@H](CC(=O)O)NC(=O)[C@H](CCCNC(=N)N)NC(=O)[C@H](Cc1c[nH]c2ccccc12)NC(=O)[C@H](CCCNC(=N)N)NC(=O)[C@H](CO)NC(=O)[C@@H](N)CCCNC(=N)N)C(C)C)C(N)=O [Peptide 179, H2N-RSRWRDVARNFLRK(Octanyl)-NH2] (H-RSRWRDVARNFLRK(Octanoyl)-NH2)

>  <MIC P. aeruginosa, µg/mL>
64

$$$$

Kindly review the next compound as well.
MIC P. aeruginosa recorded for this compound, CCCCCCCCCCCC(=O)N[C@H](CCCNC(=N)N)C(=O)N[C@H](CO)C(=O)N[C@H](CCCNC(=N)N)C(=O)N[C@H](Cc1c[nH]c2ccccc12)C(=O)N[C@H](C)C(=O)N[C@H](CC(=O)O)C(=O)N[C@@H](C(=O)N[C@H](C)C(=O)N[C@H](CCCNC(=N)N)C(=O)N[C@H](CC(N)=O)C(=O)N[C@H](Cc1ccccc1)C(=O)N[C@H](CCSC)C(=O)N[C@H](CCCNC(=N)N)C(N)=O)C(C)C [Peptide 229, Lauryl-rsrwadvarnfmr-NH2] (Lauroyl-[dR][dS][dR][dW][dA][dD][dV][dA][dR][dN][dF][dM][dR]-NH2) , is 8
